- Tested on: Human Umbilical Vein Endothelial Cells (HUVEC)
- assay: IL-8 response in primary cultured HUVEC
- Assay type: cell-based
- assayConditions: 5 μM, 6 hr
property: IL-8 levels, increase over untreated controls

[[record]]
structurenotation = "CCCCCCCCCCCCC/C=C/[C@@H](O)[C@@H](N)COP(=O)([O-])OCC[N+](C)(C)C"
systemundertest = "Human Umbilical Vein Endothelial Cells (HUVEC)"
observed = "Marginal increases"

[[record]]
structurenotation = "CCCCCCCCCCCCC/C=C/[C@@H](O)[C@@H](N)CO[C@@H]1O[C@H](CO)[C@H](O)[C@H](O)[C@H]1O"
systemundertest = "Human Umbilical Vein Endothelial Cells (HUVEC)"
observed = "Marginal increases"


----------
- systemUnderTest: human EDG-4 (Homo sapiens, UniProt O95136, F273L/I205V)
- Construct: a 1059 bp open reading frame (excluding the stop codon) corresponding to the complete human edg-4 coding region; expressed in transfected cells; host or cells: 293-EBNA
- Sequence (O95136 whole entry I205V/F273L): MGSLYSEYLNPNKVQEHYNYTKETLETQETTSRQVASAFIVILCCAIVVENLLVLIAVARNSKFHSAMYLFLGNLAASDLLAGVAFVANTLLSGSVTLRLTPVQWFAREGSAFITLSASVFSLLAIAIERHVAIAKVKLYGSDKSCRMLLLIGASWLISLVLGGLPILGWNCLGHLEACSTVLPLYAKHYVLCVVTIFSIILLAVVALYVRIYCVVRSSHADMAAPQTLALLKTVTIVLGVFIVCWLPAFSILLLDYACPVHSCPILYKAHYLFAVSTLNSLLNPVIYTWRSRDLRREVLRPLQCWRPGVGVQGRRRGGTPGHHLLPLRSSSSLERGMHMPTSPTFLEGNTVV
- assay: Relative potency and efficacy of agonists, luciferase (SRE) reporter in 293-EBNA cells expressing recombinant human EDG-4
- Type: cell-based
- assayConditions: rank of efficacy
property: Rank (EMax)
Just the number, please, no unit attached.

Consider the reported Rank (EMax) for these molecules:
[[record]]
molecule = "CCCCCCCCCCCCC/C=C/[C@@H](O)[C@@H](N)COP(=O)(O)O [S1P, sphingosine 1-phosphate]"
observed = 2

[[record]]
molecule = "CCCCCCCCCCCCC/C=C/[C@@H](O)[C@@H](N)COP(=O)([O-])OCC[N+](C)(C)C [SPC, sphingosylphosphorylcholine]"
observed = 1

[[record]]
molecule = "CCCCCCCCCCCCC/C=C/[C@@H](O)C(N)CO[C@@H]1O[C@H](CO)[C@@H](O)[C@H](O)[C@@H]1O (some centres unmarked) [Glucospychosin, glucopsychosine]"
observed = 4

[[record]]
molecule = "CCCCCCCCCCCCC/C=C/[C@@H](O)[C@@H](N)CO[C@@H]1O[C@H](CO)[C@H](O)[C@H](O)[C@H]1O [Psychosine, psychosine]"
observed = 5


API: the following record is the query input.
For reference, reported Rank (EMax) for CCCCCCCCCCCCCCC[C@@H](O)[C@@H](N)COP(=O)(O)O [Dihydro-S1P, dihydrosphingosine 1-phosphate] stands at 3
